- Test system: SF-268 CNS
- test: NCI tumour cell line growth inhibition, 48 h
experimental-readout: TGI

Some solved cases for reference:
>>> value_reported("Cc1ccc(C)c(C2=C(c3cn(C)c4ccccc34)C(=O)NC2=O)c1")
"> 25 µM"
>>> value_reported("CNC(=O)N(C)N=NCCCl")
"> 100 µM"
>>> value_reported("COCC1OC(Sc2ccccc2)C(O)C(OC)C1OC (configuration not stated)")
"> 100 µM"

Reported TGI for OCC1OC(c2cccc3cc(O)c(O)cc23)CC1O (configuration not stated) was > 100 µM

Reported TGI for CC1=C(C(=O)Nc2ccccc2)C(c2ccccc2)C(C(=O)Nc2ccccc2)=C(C)N1 was > 100 µM

Looking up CCN(CC)CCC(=O)/C=C/c1ccccc1 , I see its TGI listed as 15.6 µM

Kindly note the recorded TGI for C=CCCCCC/C=C\[C@H](O)C#CC#C/C=C/CO , which is 70.5 µM

Lookup result for N#Cc1nc2ccccc2nc1N1CCN(c2ccc([N+](=O)[O-])cc2)CC1 ; measured TGI: > 100 µM

TGI recorded for this molecule, [Cl][Hg][c]1cc(Br)cc(Br)c1 , is 4.28 µM

get_value(item= Cc1cc(N)c(C)c2c1[nH]c1ccc(O)cc12 , readout=TGI) returns > 100 µM

Lab book: TGI of O=C(NC(Cc1c[nH]c2ccccc12)C(=O)Nc1ccc(Br)cc1)OCc1ccccc1 (configuration not stated) noted as 37.7 µM

Noted for N=C1/C(=C/c2ccc(F)cc2)C(=O)N=C2SC=NN12 : its TGI reads > 100 µM

###

- Tested on: SF-539 CNS
- test: NCI tumour cell line growth inhibition, 48 h
Each entry below carries its reported TGI.
The response must be a number in µM with no trailing unit.

# annotated cases, reported TGI shown
>>> value_reported("O=[N+]([O-])c1ccc(C2=Nn3cnnc3SC2)o1")
36.3
>>> value_reported("CC(=O)c1ccc(NCc2cc(O)ccc2O)cc1")
33

Noted TGI for CC(C)=CCNc1ncnc2c1ncn2C1OC(CO)C(O)C1O (stereo not drawn) , tested on SF-539 CNS: 7.65

Record COc1ccc(N2C(=O)C(=O)N(c3ccccc3[N+](=O)[O-])C2=S)cc1 / SF-539 CNS, TGI recorded as 88.3

Value (TGI, SF-539 CNS) for record CCCCCCNC(=O)c1cc(NCc2cc(O)ccc2O)ccc1O = 6.06

Measured TGI (SF-539 CNS), entry O=c1[nH]c2c(nc1NC13CC4CC(CC(C4)C1)C3)c(=O)oc1ccccc12 : 35.8

Short answer on SF-539 CNS for COc1cc(OC)c(-c2ccc(OCc3ccccc3)c3c(OC)cc(C)cc23)c2c1C(C)=N[C@H](C)C2 , TGI: 4.32

###

- System: MCF7 breast
- test: NCI tumour cell line growth inhibition, 48 h
TGI values for the compounds below.

>>> value_reported("CCCCCCCCCCCCOC1C(C(COC2OC(C3COC(C)(C)O3)C3OC(C)(C)OC23)NC(=O)Nc2ccc(C(=O)O)cc2)OC2OC(C)(C)OC21 (configuration not stated)")
"10.8 µM"
>>> value_reported("N#Cc1c(-c2ccc(Cl)cc2)c2c([nH]c1=O)-c1ccccc1SC2")
"> 100 µM"
>>> value_reported("Cc1cc2c(cc1Cl)SC(NS(=O)(=O)c1ccc(Cl)cc1)=NS2(=O)=O")
"> 100 µM"
>>> value_reported("COc1ccc(CN2C(=O)/C(=C\\C(=O)c3ccc(OCCN4CCCCC4)cc3)c3ccccc32)cc1")
"4.6 µM"
>>> value_reported("CC(O)CCC(=O)c1ccoc1 (configuration not stated)")
"> 10000 µM"

TGI for Cc1cc(C)nc(NC(=O)c2ccc(Br)s2)c1 is > 100 µM

Please fill in: TGI reported for O=C(O)c1ccc(Nc2c3ccccc3nc3ccccc23)cc1 = > 100 µM
